System: FaDu
Test: mitochondrial oxygen consumption rate normalised to cell number, Z score vs plate DMSO wells; higher = higher oxygen consumption (negative = OCR reduction)
Settings: 10 µM; treatment time 24 h; assay medium: 5 mM glucose, 5 mM pyruvate, 4 mM glutamine
Output yes for mitochondrial oxygen consumption rate normalised not less than -2; output no otherwise.

Past entries and their recorded results:
1) COc1cc(O)c(C(=O)c2ccccc2)cc1S(=O)(=O)O    yes
2) CN1[C@@H]2CC[C@H]1C[C@@H](OC(=O)c1c[nH]c3ccccc13)C2    yes
3) O=c1cc[nH]c(=S)[nH]1    yes
4) CO[C@@]12[C@H](COC(N)=O)C3=C(C(=O)C(C)=C(N)C3=O)N1C[C@@H]1N[C@@H]12    no
5) CCCCCCCCNC(C)C(O)c1ccc(SC(C)C)cc1 (stereo not given)    no
6) CCCCCCCCCCCCCCCC[N+](C)(C)CCN(Cc1ccc(OC)cc1)c1ncccn1    no
7) Oc1c(Br)cc(Br)c2cccnc12    no
8) N=C(N)c1ccc(OCCCCCOc2ccc(C(=N)N)cc2)cc1    no

input: Reported mitochondrial oxygen consumption rate normalised reaches at least -2 for "CCOc1ccc2nc3cc(N)ccc3c(N)c2c1" ?
output: no

input: Reported mitochondrial oxygen consumption rate normalised reaches at least -2 for CCN(CC)CCCC(C)Nc1ccnc2cc(Cl)ccc12 (stereo not given) ?
output: yes

input: Reported mitochondrial oxygen consumption rate normalised reaches at least -2 for "CO[C@H]1C[C@H](O[C@H]2[C@H](C)O[C@@H](O[C@@H]3/C(C)=C/C[C@@H]4C[C@@H](C[C@]5(C=C[C@H](C)[C@@H](C6CCCCC6)O5)O4)OC(=O)[C@@H]4C=C(C)[C@@H](O)[C@H]5OC/C(=C\C=C\[C@@H]3C)[C@]54O)C[C@@H]2OC)O[C@@H](C)[C@@H]1O" ?
output: no

input: Reported mitochondrial oxygen consumption rate normalised reaches at least -2 for "CNC(=O)c1cc(Oc2ccc(NC(=O)Nc3ccc(Cl)c(C(F)(F)F)c3)cc2)ccn1" ?
output: no

input: Reported mitochondrial oxygen consumption rate normalised reaches at least -2 for "CC[C@@]1(O)C(=O)OCc2c1cc1n(c2=O)Cc2cc3c(CN(C)C)c(O)ccc3nc2-1" ?
output: yes

input: Reported mitochondrial oxygen consumption rate normalised reaches at least -2 for "O=C(O[C@H]1CN2CCC1CC2)N1CCc2ccccc2[C@@H]1c1ccccc1" ?
output: yes

input: Reported mitochondrial oxygen consumption rate normalised reaches at least -2 for "CCCCCCCCCCCCCCCCCCCCCCO" ?
output: yes

input: Reported mitochondrial oxygen consumption rate normalised reaches at least -2 for "C=C1CC[C@H](O)C/C1=C/C=C1\CCC[C@]2(C)[C@@H]([C@H](C)/C=C/[C@H](C)C(C)C)CC[C@@H]12" ?
output: no

input: Reported mitochondrial oxygen consumption rate normalised reaches at least -2 for "CCOC(=O)CCC(=O)O[C@H]1[C@H](O[C@@H]2[C@@H](C)[C@H](O[C@H]3C[C@@](C)(OC)[C@@H](O)[C@H](C)O3)[C@@H](C)C(=O)O[C@H](CC)[C@@](C)(O)[C@H](O)[C@@H](C)C(=O)[C@H](C)C[C@@]2(C)O)O[C@H](C)C[C@@H]1N(C)C" ?
output: yes

input: Reported mitochondrial oxygen consumption rate normalised reaches at least -2 for "O=C1C(O)=C([C@H]2CC[C@H](c3ccc(Cl)cc3)CC2)C(=O)c2ccccc21" ?
output: no

input: Reported mitochondrial oxygen consumption rate normalised reaches at least -2 for "N=C(N)NC(=N)NCCc1ccccc1" ?
output: no

input: Reported mitochondrial oxygen consumption rate normalised reaches at least -2 for "N[C@@H](Cc1ccc(O)c(O)c1)C(=O)O" ?
output: yes

input: Reported mitochondrial oxygen consumption rate normalised reaches at least -2 for CC(COc1ccccc1)NC(C)C(O)c1ccc(O)cc1 (stereo not given) ?
output: yes

input: Reported mitochondrial oxygen consumption rate normalised reaches at least -2 for "CC(=O)Oc1ccccc1C(=O)Nc1ncc([N+](=O)[O-])s1" ?
output: yes

input: Reported mitochondrial oxygen consumption rate normalised reaches at least -2 for "CCc1cc(Cl)c(OC)c(C(=O)NC[C@@H]2CCCN2CC)c1O" ?
output: yes

input: Reported mitochondrial oxygen consumption rate normalised reaches at least -2 for "CN(C)C(=O)C(CCN1CCC(O)(c2ccc(Cl)cc2)CC1)(c1ccccc1)c1ccccc1" ?
output: yes

input: Reported mitochondrial oxygen consumption rate normalised reaches at least -2 for "S=c1[nH]cnc2nc[nH]c12" ?
output: no

input: Reported mitochondrial oxygen consumption rate normalised reaches at least -2 for "CCCCCCCCCc1ccc(OCCOCCOCCOCCOCCOCCOCCOCCOCCO)cc1" ?
output: no

input: Reported mitochondrial oxygen consumption rate normalised reaches at least -2 for "CCCCCC(=O)O[C@]1(C(C)=O)CC[C@H]2[C@@H]3CCC4=CC(=O)CC[C@]4(C)[C@H]3CC[C@@]21C" ?
output: no

---

Reported mitochondrial oxygen consumption rate normalised by item:
System: FaDu
Experiment: mitochondrial oxygen consumption rate normalised to cell number, Z score vs plate DMSO wells; higher = higher oxygen consumption (negative = OCR reduction)
Conditions: 0.4 µM; treatment time 24 h; assay medium: 5 mM glucose, 5 mM pyruvate, 4 mM glutamine
Enter a number only.

1. COc1c2occc2cc2ccc(=O)oc12    0.146
2. C=CCOC(Cn1ccnc1)c1ccc(Cl)cc1Cl (stereo not given)    0.416
3. C[n+]1cc2c3c(ccc2c2ccc4cc5c(cc4c21)OCO5)OCO3    0.59
4. O=C1C(O)=C([C@H]2CC[C@H](c3ccc(Cl)cc3)CC2)C(=O)c2ccccc21    1.63
5. NS(=O)(=O)c1cc2c(cc1Cl)N=CNS2(=O)=O    0.722
6. CNC(=O)c1cc(Oc2ccc(NC(=O)Nc3ccc(Cl)c(C(F)(F)F)c3)cc2)ccn1    -0.411
7. CC(=O)[C@H]1CC[C@H]2[C@@H]3CCC4=CC(=O)CC[C@]4(C)[C@H]3CC[C@]12C    0.321
8. CCc1cc(Cl)c(OC)c(C(=O)NC[C@@H]2CCCN2CC)c1O    1.18
9. CCCCCCCCCCCCCCCC[N+](C)(C)CCN(Cc1ccc(OC)cc1)c1ncccn1    1.55

// next item, mitochondrial oxygen consumption rate normalised requested
input: Using known records, supply mitochondrial oxygen consumption rate normalised for COc1cc([C@@H]2c3cc4c(cc3[C@@H](O[C@@H]3O[C@@H]5CO[C@@H](c6cccs6)O[C@H]5[C@H](O)[C@H]3O)[C@H]3COC(=O)[C@H]23)OCO4)cc(OC)c1O [Teniposide]
output: 0.0174

---

Test system: FaDu
Experiment: mitochondrial oxygen consumption rate normalised to cell number, Z score vs plate DMSO wells; higher = higher oxygen consumption (negative = OCR reduction)
Conditions: 0.08 µM; treatment time 24 h; assay medium: 5 mM glucose, 5 mM pyruvate, 4 mM glutamine
Reported mitochondrial oxygen consumption rate normalised by item:

Answered examples (5):
1. CO[C@H](C(=O)[C@@H](O)[C@@H](C)O)[C@@H]1Cc2cc3cc(O[C@H]4C[C@@H](O[C@@H]5C[C@@H](O)[C@H](O)[C@@H](C)O5)[C@H](O)[C@@H](C)O4)c(C)c(O)c3c(O)c2C(=O)[C@H]1O[C@H]1C[C@@H](O[C@@H]2C[C@@H](O)[C@@H](O[C@@H]3C[C@](C)(O)[C@H](O)[C@@H](C)O3)[C@@H](C)O2)[C@H](O)[C@@H](C)O1    -4.64
2. CCc1c2c(nc3ccc(OC(=O)N4CCC(N5CCCCC5)CC4)cc13)-c1cc3c(c(=O)n1C2)COC(=O)[C@]3(O)CC    0.871
3. CCc1cc(Cl)c(OC)c(C(=O)NC[C@@H]2CCCN2CC)c1O    0.346
4. O=C(O)c1cc(/N=N/c2ccc(O)c(C(=O)O)c2)ccc1O    0.0704
5. N=C(N)c1ccc(OCCCCCOc2ccc(C(=N)N)cc2)cc1    0.754

input: Using known records, supply mitochondrial oxygen consumption rate normalised for C=CCOC(Cn1ccnc1)c1ccc(Cl)cc1Cl (configuration not stated)
output: -0.655

input: Using known records, supply mitochondrial oxygen consumption rate normalised for "Nc1nc(Cl)nc2c1ncn2[C@H]1C[C@H](O)[C@@H](CO)O1"
output: 0.0971

---

Reported mitochondrial oxygen consumption rate normalised by item:
Tested on: FaDu;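 also: compound exposure in DMEM (4 mM L-glutamine, 5 mM glucose), antimycin A injected at 2 µM after the basal reading and its residual OCR subtracted from basal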
Assay: mitochondrial oxygen consumption rate normalised to cell number, Z score vs plate DMSO wells; higher = higher oxygen consumption (negative = OCR reduction)
Conditions: 0.4 µM; treatment time 24 h; assay medium: 5 mM glucose, 5 mM pyruvate, 4 mM glutamine

Answered examples (5):
1) CCCCC(CC)CN=C(N)N=C(N)NCCCCCCNC(N)=NC(N)=NCC(CC)CCCC (stereo unspecified)    1.12
2) CCN(CC)C(=O)c1cccnc1    -0.942
3) S=c1[nH]cnc2nc[nH]c12    0.888
4) CCc1c2c(nc3ccc(OC(=O)N4CCC(N5CCCCC5)CC4)cc13)-c1cc3c(c(=O)n1C2)COC(=O)[C@]3(O)CC    1.67
5) C[C@]12CC[C@@H]3c4ccc(O)cc4CC[C@H]3[C@@H]1CC[C@@H]2OC(=O)CCC1CCCC1    0.582

input: Using known records, supply mitochondrial oxygen consumption rate normalised for "N[C@@H](Cc1ccc(O)c(O)c1)C(=O)O"
output: 0.345

input: Using known records, supply mitochondrial oxygen consumption rate normalised for "Cc1cc(N)c2ccccc2[n+]1CCCCCCCCCC[n+]1c(C)cc(N)c2ccccc21"
output: 0.622

input: Using known records, supply mitochondrial oxygen consumption rate normalised for "Nc1ncn([C@@H]2O[C@H](CO)[C@@H](O)[C@H]2O)c(=O)n1"
output: 1.15

input: Using known records, supply mitochondrial oxygen consumption rate normalised for "CCCCCCCCCCCCCCCCCCCCCCO"
output: 0.592

input: Using known records, supply mitochondrial oxygen consumption rate normalised for "Nc1c2ccccc2nc2ccccc12"
output: -0.393

input: Using known records, supply mitochondrial oxygen consumption rate normalised for "Nc1ccc2cc3ccc(N)cc3nc2c1"
output: 1.43
